B1: CPEB3 Ribozyme (parent)
chain: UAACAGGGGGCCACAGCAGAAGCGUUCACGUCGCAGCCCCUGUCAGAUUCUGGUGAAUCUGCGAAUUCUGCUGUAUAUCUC

variants of: B1; test: self-cleavage, relative activity (ratio to wild type); higher = more cleavage; in vitro, sequencing
Is self-cleavage at least 0.3? Then label 1. If not, label 0.

In plain terms: is recorded self-cleavage at least 0.3 for A15U U60C ? label 1

How about U66C C79A ? label 1

How about C40G U54C ? label 0

How about C17U U43A ? label 1

How about C11U U67G ? label 0

How about A21U U67A ? label 0

How about A47G G61A ? label 1

How about C12A U78A ? label 1

How about A3C A75G ? label 1

How about G7U U54C ? label 0

How about A21G C23G ? label 1

How about U69A U78A ? label 1

How about A28G G33A ? label 0

How about U51C U60G ? label 1

How about G16U A28U ? label 0

How about G63A U74C ? label 1

How about A2U U25C ? label 1

How about G6A G19U ? label 0

How about A47U A77G ? label 1

How about A18C C40A ? label 1

How about U48C G63C ? label 1

How about U60C G70A ? label 1

How about U54A A77U ? label 1

How about U31C U72A ? label 1

How about U41A A45G ? label 0

How about A18G U69G ? label 1

How about G19A C59U ? label 0

How about A45G U51G ? label 1

How about C12U A21G ? label 1

How about A47U U67A ? label 1

How about C37A A77G ? label 0

How about A2G C38U ? label 1

How about C27U A64G ? label 0

How about A20G G53U ? label 1

How about U26C A77C ? label 1

How about U41C U48A ? label 1

How about G24C U58C ? label 0

How about C40A U54A ? label 0

How about A18G ? label 1

How about C14A G42A ? label 0

How about A21U C39A ? label 1

How about A15U A57G ? label 1

How about C23A U74A ? label 0

How about C59A U60A ? label 1

How about A3U A21U ? label 1

How about U1C U67C ? label 0

How about A47G U72G ? label 1

How about G36C U67C ? label 0

How about U54G G73A ? label 1

How about C40A U41A ? label 0

How about G53C A57G ? label 1

How about A2G U66C ? label 0

How about A18G U74G ? label 1

How about U1G A2G ? label 1

How about C4A U72A ? label 1

How about A57C A65G ? label 0

How about A15U U67G ? label 0

How about U31A U60A ? label 1

How about C44U U51C ? label 0

How about A3U A35U ? label 1

How about C11G A21C ? label 0

How about C71U U78A ? label 1

How about A28C U72C ? label 1

How about A2U ? label 1

How about A35U U51C ? label 1

How about A64G U69G ? label 1

How about A3G G61A ? label 1

How about G8A G63C ? label 0

How about C12A U43A ? label 1

How about A20G U58G ? label 0

How about G42A C81U ? label 1

How about A20U U80A ? label 1

How about C32U U41A ? label 0

How about U41C U43A ? label 1

How about U31A G63A ? label 1

How about G6A A28G ? label 0

How about U1A A18U ? label 1

How about U74C ? label 1

How about C38A C40A ? label 0

How about A21U U43C ? label 0

How about G7C U66C ? label 1

How about A5G U74G ? label 1

How about G7A A35G ? label 1

How about C11U G53U ? label 1
